# procedure_text: Cmax in mouse at 4 mg/kg, ip
# Format: ADME, organism-based
# conditions: in vivo
measure: Cmax (ng/mL)

1) COc1cc2c(NC3CCN(C(C)C)CC3)nc(C#N)nc2cc1OCCCN1CCCC1	732

---

# assayed_target: Histone-lysine N-methyltransferase EZH2 (Homo sapiens, UniProt Q15910)
# Sequence (Q15910 whole entry): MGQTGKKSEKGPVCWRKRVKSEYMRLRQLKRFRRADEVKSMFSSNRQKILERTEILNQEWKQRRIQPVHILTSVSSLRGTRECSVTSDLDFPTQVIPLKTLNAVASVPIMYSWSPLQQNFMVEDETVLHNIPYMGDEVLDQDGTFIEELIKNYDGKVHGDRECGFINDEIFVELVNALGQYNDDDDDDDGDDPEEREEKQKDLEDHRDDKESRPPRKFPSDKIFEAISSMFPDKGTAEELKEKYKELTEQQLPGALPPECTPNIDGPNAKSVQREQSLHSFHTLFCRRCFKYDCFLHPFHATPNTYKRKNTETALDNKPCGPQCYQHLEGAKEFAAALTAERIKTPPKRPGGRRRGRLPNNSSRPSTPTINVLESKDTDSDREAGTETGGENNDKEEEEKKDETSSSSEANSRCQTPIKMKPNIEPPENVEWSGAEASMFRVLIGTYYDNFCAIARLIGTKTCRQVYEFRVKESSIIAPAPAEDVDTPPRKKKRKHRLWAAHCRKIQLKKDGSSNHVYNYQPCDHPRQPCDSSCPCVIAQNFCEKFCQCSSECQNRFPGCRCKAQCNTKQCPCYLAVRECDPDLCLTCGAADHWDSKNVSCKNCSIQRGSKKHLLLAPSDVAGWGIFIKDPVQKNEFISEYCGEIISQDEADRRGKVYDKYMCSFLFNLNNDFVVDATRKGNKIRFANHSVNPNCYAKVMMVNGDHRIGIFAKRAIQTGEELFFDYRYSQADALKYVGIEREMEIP
pIC50: −log10 of the molar value.
measure: pIC50

1) COc1cc2c(NC3CCN(C(C)C)CC3)nc(C#N)nc2cc1OCCCN1CCCC1	< 5.00

---

# assayed_target: Histone-arginine methyltransferase CARM1 (Homo sapiens)
# Sequence (Q86X55 whole entry): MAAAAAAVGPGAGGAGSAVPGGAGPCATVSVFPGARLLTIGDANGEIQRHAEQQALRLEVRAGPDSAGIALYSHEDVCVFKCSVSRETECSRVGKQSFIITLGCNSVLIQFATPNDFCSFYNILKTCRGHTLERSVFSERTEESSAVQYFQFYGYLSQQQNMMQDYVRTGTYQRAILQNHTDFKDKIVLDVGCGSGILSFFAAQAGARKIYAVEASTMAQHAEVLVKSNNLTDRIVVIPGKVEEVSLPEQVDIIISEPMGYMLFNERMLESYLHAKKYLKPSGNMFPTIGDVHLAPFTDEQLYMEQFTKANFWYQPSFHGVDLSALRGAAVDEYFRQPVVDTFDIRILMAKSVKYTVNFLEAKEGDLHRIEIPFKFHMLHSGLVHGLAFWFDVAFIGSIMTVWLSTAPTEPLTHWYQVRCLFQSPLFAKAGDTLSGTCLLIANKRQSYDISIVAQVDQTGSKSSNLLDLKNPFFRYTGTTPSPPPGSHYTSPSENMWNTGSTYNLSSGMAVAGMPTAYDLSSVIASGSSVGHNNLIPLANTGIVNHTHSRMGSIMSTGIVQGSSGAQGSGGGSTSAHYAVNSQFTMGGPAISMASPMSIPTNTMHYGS
pIC50: −log10 of the molar value.
measure: pIC50

1. COc1cc2c(NC3CCN(C(C)C)CC3)nc(C#N)nc2cc1OCCCN1CCCC1	< 5.00

---

# assayed_target: Histone-lysine N-methyltransferase EHMT1 (Homo sapiens, UniProt Q9H9B1)
# Sequence (Q9H9B1 whole entry): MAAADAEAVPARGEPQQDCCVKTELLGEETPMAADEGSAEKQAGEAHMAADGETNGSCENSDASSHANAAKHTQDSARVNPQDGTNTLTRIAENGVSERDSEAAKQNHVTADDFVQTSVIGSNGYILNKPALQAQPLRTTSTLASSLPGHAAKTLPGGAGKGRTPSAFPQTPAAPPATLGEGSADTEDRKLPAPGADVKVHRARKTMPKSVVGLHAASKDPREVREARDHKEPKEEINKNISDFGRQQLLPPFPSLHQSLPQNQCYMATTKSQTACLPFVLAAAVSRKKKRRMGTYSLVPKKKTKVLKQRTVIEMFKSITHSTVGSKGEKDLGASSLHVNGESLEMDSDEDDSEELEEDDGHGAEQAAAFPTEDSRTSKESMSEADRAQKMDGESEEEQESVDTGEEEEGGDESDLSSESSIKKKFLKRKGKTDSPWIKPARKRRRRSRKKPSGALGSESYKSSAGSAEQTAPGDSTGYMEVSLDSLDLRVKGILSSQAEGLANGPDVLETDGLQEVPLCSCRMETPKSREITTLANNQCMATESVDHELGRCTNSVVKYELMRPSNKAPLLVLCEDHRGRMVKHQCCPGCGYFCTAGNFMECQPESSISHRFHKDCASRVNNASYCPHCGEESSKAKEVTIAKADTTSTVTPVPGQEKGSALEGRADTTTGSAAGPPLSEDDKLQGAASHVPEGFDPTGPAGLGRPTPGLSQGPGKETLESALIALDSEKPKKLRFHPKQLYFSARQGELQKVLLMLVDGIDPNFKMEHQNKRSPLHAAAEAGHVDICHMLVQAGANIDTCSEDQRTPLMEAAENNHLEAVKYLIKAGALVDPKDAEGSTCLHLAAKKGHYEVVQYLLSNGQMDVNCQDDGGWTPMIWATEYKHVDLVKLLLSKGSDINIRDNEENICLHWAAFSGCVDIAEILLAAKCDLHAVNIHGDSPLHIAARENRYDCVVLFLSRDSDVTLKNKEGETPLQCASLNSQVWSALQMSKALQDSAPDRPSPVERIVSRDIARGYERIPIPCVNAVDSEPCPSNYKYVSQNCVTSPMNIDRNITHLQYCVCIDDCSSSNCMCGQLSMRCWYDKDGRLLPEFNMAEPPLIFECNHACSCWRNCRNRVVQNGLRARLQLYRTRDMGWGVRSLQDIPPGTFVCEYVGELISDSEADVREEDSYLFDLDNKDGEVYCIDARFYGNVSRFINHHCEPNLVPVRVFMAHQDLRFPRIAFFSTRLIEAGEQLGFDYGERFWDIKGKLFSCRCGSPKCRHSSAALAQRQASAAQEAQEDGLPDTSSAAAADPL
measure: IC50 (µM)

1) COc1cc2c(NC3CCN(C(C)C)CC3)nc(C#N)nc2cc1OCCCN1CCCC1	0.41

---

# procedure_text: AUC (0 to infinity) in mouse at 4 mg/kg, ip
# Assay type: ADME, organism-based
# conditions: in vivo
measure: AUC (ng·h/mL)

1. COc1cc2c(NC3CCN(C(C)C)CC3)nc(C#N)nc2cc1OCCCN1CCCC1	2960

---

# Test system: PANC-1
# procedure_text: cells
# conditions: Homo sapiens, PANC-1, 96 h
# Description: Antiproliferative activity against human PANC-1 cells assessed as inhibition of cell growth incubated for 96 hrs by CCK-8 cell viability assay
measure: IC50 (µM)

1. COc1cc2c(NC3CCN(C(C)C)CC3)nc(N3CCC(F)(F)CC3)nc2cc1OCCCN1CCCC1	5.74
